- System Name: T1, human CD33 (human, UniProt P20138 18-259, limits assumed)
- T1 construct: Human CD33 immobilized on the BLI sensor tip or the BIAcore C1 chip; also called Siglec-3
- T1 sequence (P20138 18-259 limits assumed): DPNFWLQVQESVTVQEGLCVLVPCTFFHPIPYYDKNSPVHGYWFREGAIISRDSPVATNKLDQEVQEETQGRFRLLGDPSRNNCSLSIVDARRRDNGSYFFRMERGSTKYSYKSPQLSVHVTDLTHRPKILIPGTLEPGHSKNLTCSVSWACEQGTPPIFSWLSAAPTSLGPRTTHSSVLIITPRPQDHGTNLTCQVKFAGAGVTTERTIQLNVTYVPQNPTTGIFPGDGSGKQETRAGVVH
- Experiment: BLI (ForteBio), Fab 100 nM on immobilized CD33
Measured koff of individual entries
Field: numeric (s⁻¹). Do not append units.

Example entries and their recorded answers appear below.
INSERT INTO assay_data (binder, property_label, numeric_readout) VALUES
  ('AB-14.2 (antibody, V domains shown) VH: QVQLVQSGAEVKKPGASVKVSCKASGATFTDYNYHWVRQAPGQGLEWIGFIYPSNGITGYAQKFQDRVTMTVDTSTSTVYMELSSLRSEDTAVYYCARSFVDYFDYWGQGTLVTVSS VL: DIQMTQSPSSLSASVGDRVTITCRASQDVSTSTYSYMHWYQQKPGKAPKLLIKYASNLESGVPSRFSGSGSGTDFTLTISSLQPEDFATYYCQHSWEIPLTFGQGTKLEIK', 'koff', 0.0002),
  ('AB-14.10 (antibody, V domains shown) VH: QVQLVQSGAEVKKPGASVKVSCKASGYTFTDYNYHWVRQAPGQGLEWIGFIYPSNGITGYAQKFQGRVTMTVDTSTSTVYMELSSLRSEDTAVYYCARSDVDYFDYWGQGTLVTVSS VL: DIQMTQSPSSLSASVGDRVTITCRASQSVSASTYSYMHWYQQKPGKAPKLLIKYASNLESGVPSRFSGSGSGTDFTLTISSLQPEDLATYYCQHSWEIPLTFGQGTKLEIK', 'koff', 0.0002),
  ('AB-14.6 (antibody, V domains shown) VH: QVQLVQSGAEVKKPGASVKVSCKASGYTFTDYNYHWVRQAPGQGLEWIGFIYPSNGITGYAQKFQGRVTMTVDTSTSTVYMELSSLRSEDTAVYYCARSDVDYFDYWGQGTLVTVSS VL: DIQMTQSPSSLSASVGDRVTITCRASQSVGTSTYSYMHWYQQKPGKAPKLLIKYASALESGVPSRFSGSGSGTDFTLTISSLQPEDFATYYCQHSWEIPLTFGQGTKLEIK', 'koff', 0.000264);

Q) // koff lookup, key: AB-14.9 (antibody, V domains shown) VH: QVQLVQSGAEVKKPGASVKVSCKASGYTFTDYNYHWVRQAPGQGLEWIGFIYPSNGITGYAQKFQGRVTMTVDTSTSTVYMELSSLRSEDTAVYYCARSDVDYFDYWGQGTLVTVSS VL: GIQMTQSPSSLSASVGDRVTITCRASQSVGTSTYSYMHWYQQKPGKAPKLLIKYAVNLESGVPSRFSGSGSGTDFTLTISSLQPEDFATYYCQHSWEIPLTFGQGTKLEIK
A) 0.0002

Q) Now try AB-14.5 (antibody, V domains shown) VH: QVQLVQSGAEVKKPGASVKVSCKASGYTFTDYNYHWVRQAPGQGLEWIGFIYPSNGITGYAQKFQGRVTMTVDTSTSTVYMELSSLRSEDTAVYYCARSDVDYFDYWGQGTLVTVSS VL: DIQMTQSPSSLSASVGDRVTITCRASQDVSTSTYSYMHWYQRKPGKAPKLLIKYASNLESGVPSRFSGSGSGTDFTLTISSLQPEDFATYYCQHSWEIPLTFGQGTKLEIK .
A) 0.0002

Q) One more binder: AB-H14 (antibody, V domains shown, Humanized variant of murine 2F5.1) VH: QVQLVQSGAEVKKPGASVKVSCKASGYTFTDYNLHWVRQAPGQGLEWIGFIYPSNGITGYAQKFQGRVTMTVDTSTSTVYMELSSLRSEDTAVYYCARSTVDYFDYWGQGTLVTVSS VL: DIQMTQSPSSLSASVGDRVTITCRASQSVSTSTYSYMHWYQQKPGKAPKLLIKYASNLESGVPSRFSGSGSGTDFTLTISSLQPEDFATYYCQHSWEIPLTFGQGTKLEIK
A) 0.00115

Q) # repeat for AB-14.8 (antibody, V domains shown) VH: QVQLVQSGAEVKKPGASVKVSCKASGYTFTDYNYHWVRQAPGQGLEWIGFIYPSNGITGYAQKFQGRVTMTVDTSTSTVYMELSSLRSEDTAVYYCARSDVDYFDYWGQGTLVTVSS VL: DIQMTQSPSSLPASVGDRVTITCRASQSVGTSTYSYMHWYQQKPGKAPKLLIKYASNLGSGVPSRFSGSGSGTDFTLTISSLQPEDFATYYCQHSWEIPLTFGQGTKLEIK
A) 0.0002

Q) Also, AB-14.4 (antibody, V domains shown) VH: QVQLVQSGAEVKKPGASVKVSCKASGYTFTDYNYHWVRQAPGQGLEWIGFIYPSNGITGYAQKFQGRVTMTVDTSTSTVYMELSSLRSEDTAVYYCADSTVDYFDYWGQGTLVTVSS VL: DIQMTQSPSSLSASVGDRVTITCRASQDVSTSTYSYMHWYQQKPGKAPKLLIKYVSNLESGVPSRFSGSGSGTDFTLTISSLQPEDFATYYCQHSWEIPLTFGQGTKLEIK please.
A) 0.0002

Q) Same again, this time with AB-14.11 (antibody, V domains shown) VH: QVQLVQSGAEVKKPGASVKVSCKASGYTFTDYNYHWVRQAPGQGLEWIGFIYPSNGITGYAQKFQGRVTMTVDTSTSTVYMELSSLRSEDTAVYYCARSSVDYFDYWGQGTLVTVSS VL: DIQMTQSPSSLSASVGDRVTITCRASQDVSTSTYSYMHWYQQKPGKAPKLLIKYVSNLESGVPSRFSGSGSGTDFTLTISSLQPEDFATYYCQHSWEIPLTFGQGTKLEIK
A) 0.0002
